- Tested on: HCT-116 colon
- protocol: NCI tumour cell line growth inhibition, 48 h
measure.name: TGI

# count of solved cases: 5
CCCSCC(P(=O)(O)O)P(=O)(O)O = > 100 µM
O=C(CC(C(=O)c1ccsc1)c1ccc2c(c1)OCO2)c1ccccc1 (stereo not given) = > 100 µM
COc1ccc([C@H]2[C@@H](F)C(=O)N2c2cc(OC)c(OC)c(OC)c2)cc1F = > 100 µM
COc1ccc(-c2nnc(COc3ccc(NC(=O)Nc4cc(C(F)(F)F)cc(C(F)(F)F)c4)cc3F)o2)cc1 = 3.98 µM
C[C@@H]1CCC2[C@@H](C)[C@@H](OCC(CO[C@H]3OC4O[C@@]5(C)CC[C@H]6[C@H](C)CCC([C@H]3C)[C@@]46OO5)OC(=O)CCC(=O)O)OC3O[C@@]4(C)CC[C@@H]1[C@]32OO4 (stereo not given in full) = 14.6 µM

Please supply TGI for each of the following items, keeping them in order.
1. NC1=NCC(CN2CCOCC2)O1 (stereo not given)
2. CCOC(=O)c1nc2c(nc1C(=O)OCC)C(=O)c1ccccc1C2=O

1: > 100 µM; 2: 4.25 µM

Please supply TGI for each of the following items, keeping them in order.
1. O=C1c2cc3c(cc2-c2c1c1ccc(F)cc1c(=O)n2CCCNCCO)OCO3
2. CN(C)c1nc(=Nc2ccc(N=c3nc(N(C)C)ss3)cc2)ss1

1. 0.196 µM
2. 34.1 µM

Please supply TGI for each of the following items, keeping them in order.
1. COc1ccc(-c2nnc(COc3ccc(C(=O)/C=C/c4ccco4)cc3)o2)cc1
2. CCOC(=O)c1c(C)nc2c3ccccc3c(C#N)c(C)n12
3. C[Si](C)(C)C1(Sc2ccccc2)SCCCS1

1. 3.36 µM
2. > 100 µM
3. > 100 µM

Please supply TGI for each of the following items, keeping them in order.
1. O=C(Nc1ccc(Cl)cc1)c1cccc(NC2=C(Cl)C(=O)N(Cc3ccccc3)C2=O)c1
2. COc1cccc2c(=O)oc(-c3ccc(C(C)(C)C)cc3)nc12
3. CCOP(=O)(OCC)C(c1ccc(F)cc1)N(C(=O)NC(F)(F)F)c1ccc(OC)cc1 (stereo not given)

1: 19.7 µM; 2: > 100 µM; 3: > 100 µM

Please supply TGI for each of the following items, keeping them in order.
1. CCOC(=O)NC(=O)c1cn(CCCO)c(=O)[nH]c1=O
2. O=S(=O)(CCn1c(Sc2ccccc2)c(Sc2ccccc2)c2ccccc21)c1ccccc1
3. COc1cc(NCc2ccc3oc(=O)c(-c4ccccc4)nc3c2)cc(OC)c1OC
4. Cc1cc(C(=O)CCCCOc2ccc(C3=NCCO3)cc2)c(C)n1C
5. COc1ncnc(NS(=O)(=O)c2ccc(N=C3C(=O)N(CN4CCN(c5c(F)cc6c(=O)c(C(=O)O)cn(C7CC7)c6c5OC)CC4C)c4ccc(Cl)cc43)cc2)c1OC (stereo not given)

> 100 µM
> 100 µM
> 10 µM
> 100 µM
> 50 µM
